Molecular target: T1, native human ApoC3 (human, UniProt P02656 21-99)
T1 construct: also called nhuApoC3; native huApoC3
T1 sequence (P02656 21-99): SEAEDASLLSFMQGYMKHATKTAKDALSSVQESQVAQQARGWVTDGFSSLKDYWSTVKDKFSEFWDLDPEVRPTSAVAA
Test: SPR, ApoC3 over captured IgG1, pH 5.5
This listing pairs binders with measured kon.
Give a bare numeral; the unit M⁻¹ s⁻¹ is implied.

// recorded kon for mAb5 (antibody, IgG1, V domains shown, Produced as full length IgG1 (kappa) in ExpiCHO-S cells; also called humanized anti-ApoC3 antibody mAb5) VH: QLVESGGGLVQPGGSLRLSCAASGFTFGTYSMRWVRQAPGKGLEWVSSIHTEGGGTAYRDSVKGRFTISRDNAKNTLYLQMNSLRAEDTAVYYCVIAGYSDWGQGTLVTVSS VL: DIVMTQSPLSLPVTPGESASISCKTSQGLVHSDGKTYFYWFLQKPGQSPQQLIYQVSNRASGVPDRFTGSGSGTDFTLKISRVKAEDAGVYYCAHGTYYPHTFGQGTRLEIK : 92000

// recorded kon for mAb7 (antibody, V domains shown, Produced as full length IgG1 (kappa) in ExpiCHO-S cells; also called humanized anti-ApoC3 antibody mAb7) VH: QLVESGGGLVQPGGSLRLSCAASGFTFSTYSMRWVRQAPGKGLEWVSSIHTGGGGTAYRDSVKGRFTISRDNAKNTLYLQMNNLRAEDTAIYYCVIAGYSDWGQGTLVTVSS VL: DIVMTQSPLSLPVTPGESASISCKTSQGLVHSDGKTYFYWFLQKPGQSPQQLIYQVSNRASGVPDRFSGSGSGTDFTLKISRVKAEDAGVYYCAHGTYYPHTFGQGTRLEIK : 111000

// recorded kon for mAb1 (antibody, IgG1, V domains shown, Produced as full length IgG1 (kappa) in ExpiCHO-S cells; also called humanized anti-ApoC3 antibody mAb1) VH: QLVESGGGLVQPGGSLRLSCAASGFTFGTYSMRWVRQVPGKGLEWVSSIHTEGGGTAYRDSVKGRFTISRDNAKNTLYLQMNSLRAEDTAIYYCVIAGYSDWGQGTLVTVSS VL: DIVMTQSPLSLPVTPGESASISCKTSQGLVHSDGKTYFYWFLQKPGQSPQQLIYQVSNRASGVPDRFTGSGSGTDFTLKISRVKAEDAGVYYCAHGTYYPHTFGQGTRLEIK : 101000
